Target: T1, human neurotensin receptor type 1 (hNTS1R), endogenous in HT-29 colon carcinoma cells (human (endogenous in HT-29), UniProt P30989 1-418)
T1 construct: human neurotensin receptor type 1 (hNTS1R), endogenously expressed in HT-29 colon carcinoma cells; also called HT-29 cells; source: endogenous, intact HT-29 colon carcinoma cells
T1 sequence (P30989 whole entry): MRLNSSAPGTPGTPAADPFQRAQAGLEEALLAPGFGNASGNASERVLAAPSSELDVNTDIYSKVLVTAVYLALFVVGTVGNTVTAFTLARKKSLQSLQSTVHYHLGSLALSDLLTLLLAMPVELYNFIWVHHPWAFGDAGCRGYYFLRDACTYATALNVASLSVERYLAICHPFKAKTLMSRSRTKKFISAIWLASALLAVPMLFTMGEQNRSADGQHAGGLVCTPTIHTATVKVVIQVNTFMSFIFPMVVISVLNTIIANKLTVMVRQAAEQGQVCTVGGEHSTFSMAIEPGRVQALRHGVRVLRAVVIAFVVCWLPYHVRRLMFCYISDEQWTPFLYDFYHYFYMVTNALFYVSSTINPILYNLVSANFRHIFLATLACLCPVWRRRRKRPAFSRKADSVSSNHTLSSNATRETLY
Assay: high-content imaging (HCI) of fluorescent ligand on cells; equilibrium saturation binding at intact adherent CHO-hNTS1R or HT-29 cells, DPBS1 with 0.1% BSA, 23 ± 1 °C, washing step before reading; unspecific binding with 1 μM NT(8–13)
Conditions: one partner purified
property-name: Kd
Remember to quote the unit after the number.

Query: Name the reported Kd value associated with the binder XPRRPYIL (N-terminus: 5-TAMRA attached through a 3-(1H-1,2,3-triazol-4-yl)propanoyl group; position 6 (X) = 2-(piperidin-4-yl)-Gly (pipGly); Arg8 = N^ω-[(4-(N-propanoyl)aminobutyl)aminocarbonyl]Arg) [5-TAMRA-labeled, propionylated NT(6–13) derivative 13 (UR-FE051)]
Response: 4.7 nM
